Entries and their measured 100 nM Human C5 R885C-mmh Bound (RU) follow.
Molecular target: T1, human C5 R885C-mmh (human, UniProt P01031 19-1676)
T1 construct: also called human C5 variant R885C
Test: SPR, mAb captured via anti-hFc, 37C
Experimental: Equilibrium dissociation constants (KD values) for C5 binding to purified anti-C5 antibodies were determined using a real-time surface plasmon resonance biosensor assay on a Biacore T200 instrument. […] Human C5 was obtained from a commercial source (EMD). […] Association of all the C5 reagents to each of the captured monoclonal antibodies was monitored for 3 minutes and their dissociation in HBST running buffer was monitored for 8 minutes. […]

| BINDER | RESULT_UNITS | 100 nM Human C5 R885C-mmh Bound (RU) |
| --- | --- | --- |
| H4H12170P (antibody, human IgG4, V domains shown, Human IgG4 Fc with S108P hinge mutation (H4H)) VH: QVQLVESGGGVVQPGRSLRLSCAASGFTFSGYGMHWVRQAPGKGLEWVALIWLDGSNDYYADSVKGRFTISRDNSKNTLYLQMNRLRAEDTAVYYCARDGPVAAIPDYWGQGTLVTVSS VL: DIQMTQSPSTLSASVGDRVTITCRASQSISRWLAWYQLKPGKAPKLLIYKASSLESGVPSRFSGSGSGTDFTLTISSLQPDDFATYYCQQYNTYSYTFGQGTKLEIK | RU | 61 |
| H4H12163P (antibody, human IgG4, V domains shown, Human IgG4 Fc with S108P hinge mutation (H4H)) VH: EVQLVESGGDLVQPGGSLRLSCAASGFTFSSYAMNWVRQGPGKGLEWVSAISGRGDSTYYADSVKGRLTISRDNSKNTLYLQMNSLRAEDTAVYYCVKEGEQLVYWYFDLWGRGTLVTVSS VL: DIQMTQSPSSLSASVGDRVTITCRASQTISNFLHWYQQKPGKAPKLLIYAASSLQSGVPSRFSGSGSGTDFTLTISSLQPEDFSTYFCQQSYTTPLTFGGGTKVEIK | RU | 83 |
| H4H12171P (antibody, human IgG4, V domains shown, Human IgG4 Fc with S108P hinge mutation (H4H)) VH: EVQLVESGGGVVRPGGSLRLSCAASGFTFDEYGMTWVRQVPGKGLEWVSGITWNGGFTDYTDSVKGRFTSSRDNAKNSLYLQMNSLRAEDTALYYCARDGYSSSWGAYDIWGQGTMVTVSS VL: DIQMTQSPSSLSASVGDRVTITCRASQSISTYLNWYQQKPGKAPKLLIYAASSLQSGVPLRFSGSGSGTDFTLTISSLQPEDFASYFCQQSYSTPYTFGQGTKLEIK | RU | 78 |
| H4H12167P (antibody, human IgG4, V domains shown, Human IgG4 Fc with S108P hinge mutation (H4H)) VH: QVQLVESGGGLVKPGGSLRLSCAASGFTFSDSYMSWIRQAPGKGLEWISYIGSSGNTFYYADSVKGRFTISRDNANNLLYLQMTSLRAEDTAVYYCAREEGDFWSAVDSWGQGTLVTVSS VL: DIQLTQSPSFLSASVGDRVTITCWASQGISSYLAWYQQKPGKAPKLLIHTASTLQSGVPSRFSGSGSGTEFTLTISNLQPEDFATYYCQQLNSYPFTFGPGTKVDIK | RU | 64 |
| H4H12175P (antibody, human IgG4, V domains shown, Human IgG4 Fc with S108P hinge mutation (H4H)) VH: EVQLVESGGGVVQPGGSLRLSCAASGFTFNDYAMHWVRQAPGKGLEWVSLISGDGGNTYYADSVKGRLTISRDNSKNSLYLQMNSLRTEDTALYYCAKDKGWNFGYFDLWGRGTLVTVSS VL: DIQMTQSPSSLSTSVGDRVTITCRASQNIDTYLNWYQQKPGKAPKLLIYDASSLQSGVPSRFSGSGSGTDFTLTITSLQPEDFATYYCQQNDNILHPLTFGGGTKVEIK | RU | 4 |
| H4H12168P (antibody, human IgG4, V domains shown, Human IgG4 Fc with S108P hinge mutation (H4H)) VH: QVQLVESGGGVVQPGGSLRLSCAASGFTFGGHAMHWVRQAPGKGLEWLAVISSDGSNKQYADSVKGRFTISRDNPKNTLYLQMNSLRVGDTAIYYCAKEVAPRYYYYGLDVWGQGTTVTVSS VL: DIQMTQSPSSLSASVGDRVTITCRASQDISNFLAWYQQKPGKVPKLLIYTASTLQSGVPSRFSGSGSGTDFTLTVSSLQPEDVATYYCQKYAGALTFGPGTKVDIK | RU | 21 |
| H4H12159P (antibody, human IgG4, V domains shown, Human IgG4 Fc with S108P hinge mutation (H4H)) VH: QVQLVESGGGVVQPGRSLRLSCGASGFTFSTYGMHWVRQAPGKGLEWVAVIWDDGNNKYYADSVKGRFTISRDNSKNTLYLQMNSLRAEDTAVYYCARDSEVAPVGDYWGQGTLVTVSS VL: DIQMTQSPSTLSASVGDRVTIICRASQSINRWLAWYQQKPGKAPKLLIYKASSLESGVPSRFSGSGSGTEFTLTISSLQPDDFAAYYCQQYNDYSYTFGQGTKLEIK | RU | 68 |
